Target: T1, recombinant human full-length TDP-43 (human, UniProt Q13148 1-414)
T1 construct: Recombinant full-length protein; also called FL TDP-43; recFL TDP-43
T1 sequence (Q13148 whole entry): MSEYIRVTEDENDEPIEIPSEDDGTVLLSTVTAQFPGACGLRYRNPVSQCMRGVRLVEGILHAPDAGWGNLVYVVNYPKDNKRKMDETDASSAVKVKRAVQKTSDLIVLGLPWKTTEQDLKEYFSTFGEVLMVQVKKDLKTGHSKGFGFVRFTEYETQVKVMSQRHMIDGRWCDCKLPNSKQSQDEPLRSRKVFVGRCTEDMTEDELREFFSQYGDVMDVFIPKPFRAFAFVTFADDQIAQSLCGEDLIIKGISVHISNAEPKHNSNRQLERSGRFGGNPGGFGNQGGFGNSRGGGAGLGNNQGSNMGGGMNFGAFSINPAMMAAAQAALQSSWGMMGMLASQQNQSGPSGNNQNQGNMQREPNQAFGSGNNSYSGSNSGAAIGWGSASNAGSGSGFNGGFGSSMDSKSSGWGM
Assay: Luminex bead assay, antibody serial dilution, FL TDP-43 beads
readout: EC50 (pM)
Lab book: enter the figure in pM, no units written.

Solved cases below.
INSERT INTO results (binder, outputunit, measurednumber) VALUES
  ('ACI-7062-406E3-Ab2 (antibody, IgG2a, V domains shown, also called 406E3G10; clone 6) VH: QVTLKESGPAILQPSQTLSLTCSFSGFSLTTYGIGVGWIRQPSGKGLEWLAHIWWNDNKYYNTALKSRLTVSKDTSNNQVFLKIASVDTADTATYYCARVYGNLYYFAYWGQGTTLTVSS VL: DVLMTQTPLSLPVSLGDRASISCRSSQSIVHRSGNTYLEWYLQKPGQSPKLLIYKVSNRFSGVPDRFSGSGSGTDFTLKISRVEAEDLGVYYCFQGSHVPTFGAGTKLELKR', 'pM', 10),
  ('ACI-7062-416A11-Ab1 (antibody, IgG2a, V domains shown, also called 416A11B3; clone 18) VH: QVTLKESGPGILQSSQTLSLTCSFSGFSLSTYGIGVGWIRQPSGKGLEWLAHIWWNDNKYYNTALKSRLTISKDTSNNQVFLKIASVDTADAATYYCARVYGNLYYFGYWGQGTTLTVSS VL: DVLMTQTPLSLPVSLGDRASISCRSSQSIVHSSGNTYLEWYLQKPGQSPKLLIYKVSNRFSGVPDRFSGSGSGTDFTLKISRVEAEDLGVYYCFQGSRVPTFGAGTKLELKR', 'pM', 15);

// recorded EC50 for ACI-7062-410H3-Ab1 (antibody, IgG1, V domains shown, also called 410H3B9; clone 7) VH: DVQLVESGGGLVQPGGSRRLSCAASGFTFSSFGMHWVRQAPEKGLEWVAYIRSGSDIIYYADSVKGRFTISRDNPENTLFLQMTSLRSEDTAMYYCARSGTTVPFDYWGQGTSLTVSS VL: DIVMTQSPSSLAMSVGQKVTMSCKSSQSLLNSGNQKNYLAWYQQKPGQSPELLLYFASTRASGVPDRFIGSGSGTDFTLTISSVQAEDLADYFCQQHYSIPLTFGAGTKLELKR : 30
